tested on: OVCAR-4; test: NCI tumour cell line growth inhibition, 48 h
Active and inactive are the calls of the source. Cut-off read from the data, not from the text of the source: active = GI50 up to about 1.1 µM and inactive = higher.
Outcome codes: active, inactive

# Molecule, Subject of test, Classification
records = [
    ("CC#CC(=O)SCCNC(=O)CC", "OVCAR-4", "inactive"),
    ("O=C(O)/C(=C\\c1ccccc1)Cc1ccccc1", "OVCAR-4", "inactive"),
    ("O=C1CSC(c2c(O)ccc3ccccc23)N1n1c(S)nnc(/C=C/c2c(O)ccc3ccccc23)c1=O (stereo unspecified)", "OVCAR-4", "active"),
    ("C=C1c2ccccc2C(=O)c2c1c1c(C(=O)OC)c(O)ccc1n2Cc1ccccc1", "OVCAR-4", "active"),
    ("COc1ccc(C(=O)Cn2c(C(C)=O)nc3ccccc32)cc1", "OVCAR-4", "inactive"),
    ("c1ccc2[nH]c(-c3nc4ccccc4o3)nc2c1", "OVCAR-4", "inactive"),
]

----------
test system: NCI-H460; assay: NCI tumour cell line growth inhibition, 48 h
Calls of active or inactive are those of the source. Cut-off read from the data, not from the text of the source: active = GI50 up to about 1.1 µM and inactive = higher.
This section presents compounds with their documented GI50 values.
Measured metric: GI50

# Compound, Subject of test, Reported
data = [
    ("C=CCc1cc(OC)c2c(c1)C(OC)CC(c1ccc(OC)c(OC)c1)O2 (configuration not stated)", "NCI-H460", "> 100 µM (inactive)"),
    ("O=c1ccn2n1CCCCC2", "NCI-H460", "> 100 µM (inactive)"),
    ("Cc1c2cc[n+](C)c(C)c2cc2c1[nH]c1ccccc12", "NCI-H460", "3.37 µM (inactive)"),
    ("S=c1sc2nc(Cl)nc(Cl)c2s1", "NCI-H460", "14.2 µM (inactive)"),
    ("COc1ccc(NCc2c(O)ccc3ccccc23)cc1", "NCI-H460", "49.9 µM (inactive)"),
    ("CN(Nc1cc(=O)[nH]c(=O)[nH]1)c1ccccc1", "NCI-H460", "> 100 µM (inactive)"),
    ("NCCC1(N)CCNCC1", "NCI-H460", "> 100 µM (inactive)"),
    ("CC(N/N=N/c1ccc(-c2nc3ccccc3[nH]2)cc1)C(=O)O (configuration not stated)", "NCI-H460", "17.5 µM (inactive)"),
    ("CC1(C)C(=O)c2ccccc2OC1N1CCN(C2Oc3ccccc3C(=O)C2(C)C)CC1 (configuration not stated)", "NCI-H460", "> 100 µM (inactive)"),
    ("CN(C)CCn1c2c(c3ccccc31)CCc1ccccc1-2", "NCI-H460", "14.4 µM (inactive)"),
    ("Nc1nc(N)c2ncn(CCCC(c3ccccc3)P(=O)(O)O)c2n1 (configuration not stated)", "NCI-H460", "> 100 µM (inactive)"),
    ("c1ccc(N/N=N/c2ccc(-c3nc4ccccc4o3)cc2)nc1", "NCI-H460", "30.5 µM (inactive)"),
]

----------
tested on: MOLT-4; assay: NCI tumour cell line growth inhibition, 48 h
The source made the active and inactive calls. Cut-off read from the data, not from the text of the source: active = GI50 up to about 1.1 µM and inactive = higher.

# Compound, GI50
data = [
    ("O=c1[nH]c2ccc(Cl)cc2c2oc(-c3ccccc3)nc12", "76.2 µM (inactive)"),
    ("CC(C)COC(=O)N1N=NC2C3OC(CC3=O)C21 (stereo unspecified)", "> 100 µM (inactive)"),
    ("C[S+]([O-])c1ncc2c(n1)-c1ccccc1OC2 (stereo unspecified)", "> 100 µM (inactive)"),
    ("COc1cc(/C=N\\c2nc(-c3ccc(NS(=O)(=O)c4ccc(Cl)c(OC)c4)cc3)cs2)ccc1O", "16.4 µM (inactive)"),
    ("CC(=O)C(O)N1C(=O)C=CC1=O (stereo unspecified)", "2.05 µM (inactive)"),
    ("c1ccc(-c2cc(-c3cccs3)c(-c3cccs3)o2)cc1", "> 100 µM (inactive)"),
    ("Cc1c2ncccc2cc2oc3ccccc3c(=O)c12", "2.94 µM (inactive)"),
    ("Cc1cccc2c1C(=O)OC2(C)c1cccc2ccccc12 (stereo unspecified)", "26.2 µM (inactive)"),
    ("COC1N(C2CC(O)C(CO)O2)C(=O)NC(=O)C1(F)Br (stereo unspecified)", "11 µM (inactive)"),
    ("COC(=O)C1=COC2OC3C(C(C)O)C(=O)OC34C=CC1C24 (stereo unspecified)", "24.3 µM (inactive)"),
    ("O=C(CCCN1CCC(Nc2ccc(F)cc2)(c2nnnn2C2CCCCC2)CC1)c1ccc(F)cc1", "5.27 µM (inactive)"),
]

----------
test system: NCI/ADR-RES; test: NCI tumour cell line growth inhibition, 48 h
Activity calls are given as the source filed them. Rule as the data show it: active = GI50 up to about 1.1 µM and inactive = higher.
This section presents compounds with their documented GI50 values.

# Compound, GI50
records = [
    ("CC1=C(C(N)=O)C(c2ccncc2)C(C#N)=C2SCC(=O)N12 (stereo unspecified)", "> 100 µM (inactive)"),
    ("CC#CC(=O)SCCNC(=O)CC", "> 10 µM (inactive)"),
    ("CN(C)c1ccc(/C=C(/NC(=O)c2ccccc2)C(=O)Nc2ccccc2C(=O)O)cc1", "> 100 µM (inactive)"),
    ("COc1ccc(NCc2c(O)ccc3ccccc23)cc1", "40.5 µM (inactive)"),
    ("CC(=O)OCCCCn1cc(Cn2ccc(=O)n(Cc3cn(CCCCOC(C)=O)nn3)c2=O)nn1", "> 100 µM (inactive)"),
    ("O=c1[nH]c2ccc(Cl)cc2c2oc(-c3ccccc3)nc12", "29.5 µM (inactive)"),
]

----------
This section presents compounds with their documented GI50 values.
tested on: OVCAR-5; experiment: NCI tumour cell line growth inhibition, 48 h
Calls of active or inactive are those of the source. Rule as the data show it: active = GI50 up to about 1.1 µM and inactive = higher.
Measured metric: GI50

# Compound, Reported
rows = [
    ("CCCCOC(=O)NC(Nc1ccc(S(=O)(=O)Nc2ccc(OC)nn2)cc1)(C(F)(F)F)C(F)(F)F", "> 100 µM (inactive)"),
    ("Cc1nc(-c2cccnc2)sc1C(=O)CC(=O)C(=O)Nc1cccc(NC(=O)C(=O)CC(=O)c2sc(-c3cccnc3)nc2C)n1", "> 100 µM (inactive)"),
    ("C=C1C(=O)O[C@@H]2C[C@@H](C)[C@@H]3C=CC(=O)[C@@]3(C)[C@@H](O)[C@H]12 [HELENALIN]", "1.71 µM (inactive)"),
    ("O=C1CCC2CCC1C2 (stereo not given)", "> 100 µM (inactive)"),
    ("COc1ccc(OC)c(C(Cc2ccnc3ccccc23)Cc2ccnc3ccccc23)c1", "> 10 µM (inactive)"),
    ("CC[C@@H]1C[C@H]2CC3c4[nH]c5ccc(O)cc5c4CCN(C2)C31", "> 100 µM (inactive)"),
    ("Cc1cc(NS(=O)(=O)c2ccc(NC(=O)c3ccc(Cl)c4c(Nc5ccc(S(N)(=O)=O)cc5)c5ccccc5nc34)cc2)no1", "24.5 µM (inactive)"),
    ("CCN1CC2=C(NC(=S)NC2c2ccc(Cl)cc2)/C(=C/c2ccc(Cl)cc2)C1 (stereo not given)", "> 100 µM (inactive)"),
    ("C=C1CC[C@@]2(C)[C@@H]([C@@H]1C)[C@H]1CC[C@@H]3[C@@]4(C)CC[C@H](O)C(C)(C)[C@@H]4CC[C@@]3(C)[C@]1(C)C[C@@H]2O", "4.25 µM (inactive)"),
    ("COc1cc(Br)c(CC2(C#N)c3ccccc3C3C(N2C(=O)c2ccccc2)C3(Cl)Cl)cc1OC (stereo not given)", "> 65.5 µM (inactive)"),
    ("Cc1ccc(NC(=O)CC(=O)N2N=C(c3ccccc3)C(/N=N/c3ccc(S(=O)(=O)CCOS(=O)(=O)O)cc3)C2=O)cc1 (stereo not given)", "> 100 µM (inactive)"),
    ("Cc1cnc(NCCCN(C)C)c2c1[nH]c1ccc3cc(O)ccc3c12", "0.925 µM (active)"),
    ("CC(C)c1ccccc1NC(=O)/C(Cl)=C1/Sc2ccccc2NC1=O", "43.3 µM (inactive)"),
    ("COc1ccc(/N=N/C(=O)NC(Cc2ccccc2)C(=O)O)cc1 (stereo not given)", "> 100 µM (inactive)"),
    ("c1ccc(N/N=N/c2ccc(-c3nc4ccccc4o3)cc2)nc1", "> 100 µM (inactive)"),
    ("CCn1c2c(c3ccccc31)[C@@H](c1ccc(Cl)cc1)CC1C(=O)N(c3ccccc3)C(=O)C21 (stereo not given in full)", "> 100 µM (inactive)"),
    ("O=C1C(Cl)=C(c2ccc([N+](=O)[O-])cc2)C(=O)c2c(O)cccc21", "2.24 µM (inactive)"),
    ("CNc1ccc(Cl)cc1S(=O)(=O)c1ccccc1[N+](=O)[O-]", "> 100 µM (inactive)"),
    ("Cc1cc(N(CCC#N)S(=O)(=O)c2ccccc2)ccc1/C=C1N=C(/C=C/c2ccccc2)OC\\1=O", "> 100 µM (inactive)"),
    ("N#CC1=C(N)N2C(=O)/C(=C/c3ccccc3)SC2C(c2nc3ccccc3[nH]2)=C1c1ccccc1 (stereo not given)", "2.54 µM (inactive)"),
    ("O=C1Nc2ccccc2C(=O)/C1=C/NC(=S)NCc1ccccc1", "> 100 µM (inactive)"),
    ("CSc1nncc2[nH]cnc12", "> 100 µM (inactive)"),
    ("CC(C)c1ccc(/C(C(=O)O)=C(\\O)C(=O)O)cc1", "> 100 µM (inactive)"),
    ("Cc1c(C(=O)CSc2nc3ccccc3[nH]2)c(=O)n(-c2ccccc2)n1C", "> 100 µM (inactive)"),
    ("COc1cc(C2(c3ncc[nH]3)SSSCC2O)ccc1O (stereo not given)", "> 100 µM (inactive)"),
    ("CCOC(=O)NC(Nc1cccc(C(F)(F)F)c1)(C(F)(F)F)C(F)(F)F", "> 100 µM (inactive)"),
    ("CCc1cc(Cc2ccc(C)c(NC(=O)C(=O)C3C(=O)NC(=O)NC3=O)c2CC)cc(C)c1NC(=O)C(=O)C1C(=O)NC(=O)NC1=O", "> 100 µM (inactive)"),
    ("CC(C)C(NCc1c(O)ccc2c(-c3ccccc3)cc(=O)oc12)C(=O)O (stereo not given)", "> 100 µM (inactive)"),
    ("CCCCn1c(C)c(C)c2c1NN=C(C#N)S2(=O)=O", "> 100 µM (inactive)"),
    ("O=C(Nc1nnn[nH]1)c1nc(O)cc(-c2ccccc2)n1", "> 100 µM (inactive)"),
    ("CCOC(=O)CNC1C(NC(C)=O)C(OC)OC2COC(c3ccccc3)OC21 (stereo not given)", "> 100 µM (inactive)"),
    ("CC1=CC(=O)NP(=O)(C23CC4CC(CC(C4)C2)C3)N1 (stereo not given)", "> 100 µM (inactive)"),
    ("Fc1ccc(C(=C2CCN(CCc3ccc4[nH]c(=S)[nH]c4c3)CC2)c2ccc(F)cc2)cc1", "9.23 µM (inactive)"),
    ("C=C1C(=O)OC2/C=C(\\CO)C3OC3C3OC3(C)CC(OC(=O)/C(=C/C)COC(C)=O)C12 (stereo not given)", "15.3 µM (inactive)"),
    ("O=C(CCC(=O)c1ccsc1)c1ccsc1", "> 100 µM (inactive)"),
    ("CC(c1ccccc1)n1c2ccccc2c2c(N)ncnc21 (stereo not given)", "18.2 µM (inactive)"),
    ("Nc1ncc(CN2CCCC2)c(-c2ccccc2O)n1", "> 750 µM (inactive)"),
    ("COC(=O)[C@H](CC(C)C)NC(=O)[C@H](Cc1ccccc1)N1CC2C=CC1C2 (stereo not given in full)", "> 100 µM (inactive)"),
    ("O=C(NC12CC3CC(CC(C3)C1)C2)C(=O)c1c[nH]c2ccc([N+](=O)[O-])cc12", "> 87.5 µM (inactive)"),
    ("CC1=NOC(=O)/C1=C/c1ccccc1O", "> 100 µM (inactive)"),
]
